- Tested on: H460
- experimentalProtocol: Proliferation assay, H460
- Format: cell-based, human
- reportedConditions: Homo sapiens, NCI-H460, 96 h, H460 cells, 4 days, crystal violet
propertyLabel: IC50
Remember to put the unit after the number in your answer.

compound: C[C@@H](Nc1nc(Nc2ccc(S(=N)(=O)CCO)cc2)ncc1Br)C(C)(C)O (single isomer, unassigned)
val: 200 nM

compound: COc1cc(Nc2ncc(Br)c(N[C@H](C)[C@@H](C)O)n2)ccc1S(C)(=N)=O (single isomer, unassigned)
val: 20 nM

compound: CCS(=N)(=O)c1ccc(Nc2ncc(Br)c(N[C@H](C)C(C)(C)O)n2)cc1 (single isomer, unassigned)
val: 100 nM

Moving on to the next compound.
# IC50 (compound: COC[C@@H](Nc1nc(Nc2ccc(S(C)(=N)=O)cc2)ncc1Br)[C@@H](C)O (mixture of isomers) [Example 1.46] ) is 110 nM

----------
- systemUnderTest: VEGF-R2 (Homo sapiens (Human), UniProt P35968)
- Sequence (P35968 20-1356, species assumed): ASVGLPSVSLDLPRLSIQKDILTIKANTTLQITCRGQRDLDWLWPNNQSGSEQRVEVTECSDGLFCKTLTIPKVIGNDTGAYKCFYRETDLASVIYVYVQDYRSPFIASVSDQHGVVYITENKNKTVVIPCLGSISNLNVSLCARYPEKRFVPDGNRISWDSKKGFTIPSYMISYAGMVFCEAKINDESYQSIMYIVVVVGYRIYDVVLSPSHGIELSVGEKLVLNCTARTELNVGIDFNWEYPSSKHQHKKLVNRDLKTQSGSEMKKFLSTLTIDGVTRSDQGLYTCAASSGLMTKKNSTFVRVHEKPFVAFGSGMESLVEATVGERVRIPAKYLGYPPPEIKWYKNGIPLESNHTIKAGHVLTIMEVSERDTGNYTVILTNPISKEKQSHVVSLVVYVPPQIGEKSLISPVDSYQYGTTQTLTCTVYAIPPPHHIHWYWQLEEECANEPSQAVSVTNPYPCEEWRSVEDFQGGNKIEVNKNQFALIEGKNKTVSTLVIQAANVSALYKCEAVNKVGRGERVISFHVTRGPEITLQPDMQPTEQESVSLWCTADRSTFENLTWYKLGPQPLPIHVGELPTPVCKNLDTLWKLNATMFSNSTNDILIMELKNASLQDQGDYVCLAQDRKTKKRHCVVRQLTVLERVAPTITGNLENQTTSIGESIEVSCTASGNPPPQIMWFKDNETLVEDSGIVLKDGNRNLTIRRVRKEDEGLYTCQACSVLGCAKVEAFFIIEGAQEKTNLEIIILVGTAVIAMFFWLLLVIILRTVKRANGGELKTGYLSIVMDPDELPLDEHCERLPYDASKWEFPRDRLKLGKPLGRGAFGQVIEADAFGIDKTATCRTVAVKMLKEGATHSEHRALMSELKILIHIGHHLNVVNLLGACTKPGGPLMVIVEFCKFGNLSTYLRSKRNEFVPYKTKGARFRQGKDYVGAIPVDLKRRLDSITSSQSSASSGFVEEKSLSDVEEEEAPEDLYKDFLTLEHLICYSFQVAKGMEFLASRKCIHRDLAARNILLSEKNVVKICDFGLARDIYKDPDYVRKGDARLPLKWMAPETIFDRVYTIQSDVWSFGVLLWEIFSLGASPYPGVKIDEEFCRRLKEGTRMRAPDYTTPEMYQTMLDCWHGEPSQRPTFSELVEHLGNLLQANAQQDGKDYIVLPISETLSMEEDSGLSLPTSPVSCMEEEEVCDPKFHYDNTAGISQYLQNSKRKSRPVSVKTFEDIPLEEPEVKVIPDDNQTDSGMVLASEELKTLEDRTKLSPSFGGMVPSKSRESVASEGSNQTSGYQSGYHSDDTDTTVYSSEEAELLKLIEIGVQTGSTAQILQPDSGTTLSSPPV
propertyLabel: IC50 (nM)
Quick note: give the figure in nM, leave out the unit.

Assay VEGF-R2 (Homo sapiens (Human), UniProt P35968), sample C[C@@H](Nc1nc(Nc2ccc(S(=N)(=O)CCO)cc2)ncc1Br)C(C)(C)O (single isomer, unassigned) , IC50 read: 59

----------
- systemUnderTest: CDK1/CycB (Homo sapiens (Human))
- Sequence (P06493 whole entry): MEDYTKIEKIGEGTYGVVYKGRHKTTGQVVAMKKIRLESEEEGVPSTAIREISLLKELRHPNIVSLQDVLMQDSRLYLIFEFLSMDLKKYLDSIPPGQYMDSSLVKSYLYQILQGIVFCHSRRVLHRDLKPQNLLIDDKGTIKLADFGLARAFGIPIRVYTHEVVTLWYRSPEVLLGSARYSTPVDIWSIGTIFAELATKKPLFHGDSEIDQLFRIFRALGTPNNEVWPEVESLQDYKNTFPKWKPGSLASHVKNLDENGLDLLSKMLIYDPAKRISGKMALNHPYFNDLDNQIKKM
- Sequence (P14635 whole entry partner): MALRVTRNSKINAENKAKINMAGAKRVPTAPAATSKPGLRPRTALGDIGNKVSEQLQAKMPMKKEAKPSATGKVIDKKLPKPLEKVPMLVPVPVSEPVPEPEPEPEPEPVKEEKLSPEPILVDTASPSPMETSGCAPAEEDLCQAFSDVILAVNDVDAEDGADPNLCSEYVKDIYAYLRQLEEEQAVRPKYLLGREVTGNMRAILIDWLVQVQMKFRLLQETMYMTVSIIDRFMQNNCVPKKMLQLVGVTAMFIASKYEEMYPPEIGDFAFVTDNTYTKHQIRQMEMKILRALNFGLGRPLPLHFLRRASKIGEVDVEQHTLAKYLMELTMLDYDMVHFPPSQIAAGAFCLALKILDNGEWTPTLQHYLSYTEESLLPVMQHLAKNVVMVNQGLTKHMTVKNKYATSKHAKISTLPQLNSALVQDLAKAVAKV
- experimentalProtocol: CDK1/CycB kinase assay
- reportedConditions: histone IIIS substrate, 0.5 μm ATP
propertyLabel: pIC50
pIC50 here is simply -log10 of the concentration when that concentration is written in mol/L.

# pIC50 (compound: C[C@@H](Nc1nc(Nc2ccc(S(=N)(=O)CCO)cc2)ncc1Br)C(C)(C)O (single isomer, unassigned) [Example 1.15] ) is 7.60

----------
Below, each of the compounds is paired with its reported pIC50 value.
- Tested on: DU145
- experimentalProtocol: Proliferation assay, DU145
- Type: cell-based, human
- reportedConditions: DU145 cells, 4 days, crystal violet
pIC50 here is simply -log10 of the concentration when that concentration is written in mol/L.

compound: Cc1cc(Nc2ncc(Br)c(N[C@H](C)C(C)(C)O)n2)ccc1S(C)(=N)=O (mixture of isomers) [Example 1.58]
pIC50: 7.52

# pIC50 (compound: Cc1cc(Nc2ncc(Br)c(N[C@H](C)C(C)(C)O)n2)ccc1S(C)(=N)=O (mixture of isomers) [Example 1.57] ) is 6.96

# pIC50 (compound: CCS(=N)(=O)c1ccc(Nc2ncc(Br)c(N[C@H](COC)[C@@H](C)O)n2)cc1 (mixture of isomers) ) is 6.52

----------
- Test system: MCF7
- experimentalProtocol: Proliferation assay, MCF7
- Format: cell-based, human
- reportedConditions: Homo sapiens, MCF7, 96 h, MCF7 cells, 4 days, crystal violet
Below, each of the molecules is paired with its reported IC50 value.
Remember to put the unit after the number in your answer.

molecule: COc1cc(Nc2ncc(Br)c(N[C@H](C)[C@@H](C)O)n2)ccc1S(C)(=N)=O (single isomer, unassigned)
val: 60 nM
--
molecule: CCS(=N)(=O)c1ccc(Nc2ncc(Br)c(N[C@H](C)C(C)(C)O)n2)cc1 (single isomer, unassigned)
val: 20 nM

Moving on to the next molecule.
# IC50 (molecule: CCS(=N)(=O)c1ccc(Nc2ncc(Br)c(N[C@H](COC)[C@@H](C)O)n2)cc1 (mixture of isomers) [Example 1.48] ) is 300 nM
